system: MS2 coat protein; experiment: apparent Kd, MS2 coat protein; higher = weaker binding; RNA-MaP array; FMN 200 µM where present; settings: ligand present: flavin mononucleotide; designed as: OFF switch for flavin mononucleotide
Label scheme for apparent Kd: lower segment = under 20 nM, middle segment = from 20 nM up to 100 nM, upper segment = 100 nM and over

Solved cases below.
chainSequence: AGUUGGCGAGGAUAUACAUGAGGAUCACCCAUGUGAAAUAUAAGAGUGAGGAAGAAAAGUAGAAGGCGCUGACA
assignedClass: upper segment
//
chainSequence: CGUAUGUCAGGAUAUGUGUAUGCCGCUCAGGGCGAGCGGCAGCAGAAGGGACAUGAGGAUCACCCAUGUUCGGG
assignedClass: upper segment
//
chainSequence: CUUCAACAAGGAUAUGCCAUGGAUCGACACUGUUACGCGAAACAUGAGGAUCACCCAUGUAGAAGGUGUUGAGA
assignedClass: middle segment

input: Band for the recorded apparent Kd of `CGUAUGGACAGAGGAUAUGCCGAUAGGAUCUACUAUCGAAGAAUCCUCACAUGAGGAUCACCCAUGUAGAAGGCUGUCCAUACU` ?
output: middle segment

input: Which apparent Kd band matches `GUGGCUAGUGCAGGAUAUUGGCGCGUGUAGUGUCGAGAAGGGCACAUGAGGAUCACCCAUGUGAUCAAUCACUGCUAAGGUCGC` ?
output: lower segment

input: Which category does the recorded apparent Kd put `GGGCCCGGAGGAUAUACAAUGGGCCCGGGAAAUUGGGCCCUACAUGAGGAUCACCCAUGUAGAAGGUUGGGCCC` in?
output: lower segment

input: Categorize the following entry: `AAUAUGUUGCAGAAGGCCAUGUUGUGGUAGUACCUCAUGACAUGAGGAUCACCCAUGUUUGUGUUGGAGGAUAUGCAAUAUAUU`
output: upper segment

Values were extracted from the EternaBench riboswitch data.
